Each recorded value in this set is attributed to paper doi:10.1101/2022.06.05.494897v1.

# System Tested: human cathepsin L (Homo sapiens, UniProt P07711)
# Sequence (P07711 114-333 limits assumed): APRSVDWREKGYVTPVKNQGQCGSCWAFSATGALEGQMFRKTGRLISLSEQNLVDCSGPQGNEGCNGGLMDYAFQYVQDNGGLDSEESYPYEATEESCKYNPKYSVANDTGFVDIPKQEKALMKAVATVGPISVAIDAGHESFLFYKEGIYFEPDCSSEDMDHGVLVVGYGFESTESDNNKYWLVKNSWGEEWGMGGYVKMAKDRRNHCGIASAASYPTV
pIC50: −log10 of the molar value.
Quantity Name: pIC50

Looking for the measured pIC50 of CC(C)C[C@H](NC(=O)c1cc2c(F)cccc2[nH]1)C(=O)NN(C[C@@H]1CCNC1=O)C(=O)[C@H](F)Cl , can you help?
< 5.00
